Entry source: paper PMC8417293

I'd appreciate it if you could supply pKd values for the items below.
# tested.system: BsCspB (cold shock protein B) (UniProt P32081 1-67)
# Sequence (P32081 whole entry): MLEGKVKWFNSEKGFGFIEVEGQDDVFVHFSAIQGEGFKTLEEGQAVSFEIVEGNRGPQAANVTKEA
# experiment: intrinsic Trp fluorescence quenching; 300 g/L Dex20 (series b); 20 mM disodium phosphate pH 7.0, no added salt stated; fluorescence titration 298 K (0.5, 2.8 or 4 uM protein; table marks a/b not explained in the material); stopped-flow 288 K (60 or 300 nM protein); NMR 298 or 294.4 K with 5% D2O
# experimental.setup: protein: recombinant; single strand
Numbers only, as −log10 of the molar value.

Field: pKd. Fill in for each record below.
1. TTTTTTT (ssDNA) [dT7]
2. TTTTT (ssDNA) [dT5]

8.22
6.46
